- System: CEM cells HIV-1 protection, formazan growth assay
- experiment-description: NCI AIDS Antiviral Assay;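 active = compounds giving half or more protection of infected cells from virus-caused growth loss, again on retest; inactive = the rest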
- Method: The ability of compounds to protect human CEM cells from HIV-1 infection is measured as a screen for new compounds capable of inhibiting the HIV virus. Five concentrations of drug were tested on uninfected and infected cells and cell growth was measured using a soluble formazan assay. […] Compounds that provided at least 50% protection were retested. Compounds that provided at least 50% protection on retest were listed as moderately active. […]
Result category, one only: 1 (active), 0 (inactive)

Answered cases to consult:
molecule	assay-system	classification
COc1ccc(/C(C)=N/NC(=O)c2ccncc2)c(OC)c1	CEM cells HIV-1 protection, formazan growth assay	0
O=C(c1ccccc1)C1(c2ccccc2)SSC1(C(=O)c1ccccc1)c1ccccc1 (stereo unspecified)	CEM cells HIV-1 protection, formazan growth assay	0
COc1ccc2[nH]c(C(=O)N3CC(CCl)c4c3cc(N)c3ccccc43)cc2c1 (stereo unspecified)	CEM cells HIV-1 protection, formazan growth assay	0

Input line: Status in this test for "CC1=CC(C)(C)Nc2ccc(OC(=O)/C=C(C)/C=C/C=C(C)/C=C/C3=C(C)CCCC3(C)C)cc21" ?
Output line: 0

Input line: Ok, now NC1Cc2ccccc2OC1=O (stereo unspecified)
Output line: 0

Input line: Could you do the same for CC(C)CCCC(C)[C@H]1CC[C@@H]2[C@H]3CC[C@H]4C[C@@H](CCC=C(c5cc(Cl)c(OCc6cccc([N+](=O)[O-])c6)c(C(=O)O)c5)c5cc(Cl)c(OCc6cccc([N+](=O)[O-])c6)c(C(=O)O)c5)CC[C@]4(C)[C@@H]3CC[C@]12C (stereo partly specified) , please?
Output line: 0

Input line: Then "Cn1nnn2c(-c3ccccc3)nnc12" ?
Output line: 0

Input line: Query O=C(Cc1ccccc1)NN1C(=O)C(Cl)C1c1ccccc1O (stereo unspecified) next
Output line: 0
